# Test system: NCI-H226 lung
# method: NCI tumour cell line growth inhibition, 48 h
observed.property: TGI (µM)
Number in µM, nothing else.

O=C(Cc1ccccc1)NC(c1ccc(Cl)cc1)c1c(O)ccc2ccccc12 (stereo not given) :: 12

As a next step, examine the compound that follows.
I am curious: what TGI value has been reported for N#Cc1c(N)nc(NCc2ccccc2)c(C#N)c1-c1ccccc1Cl ?
14.5

###

# System: MALME-3M melanoma
# method: NCI tumour cell line growth inhibition, 48 h
Reported TGI values are given for each entry in this list.

Observe how each entry below is paired with its result.
C[C@]12CC[C@H]3[C@@H](CCC4=CC(=O)CC[C@@]43C)[C@@H]1CC[C@@H]2C(=O)Nc1ccc([N+](=O)[O-])c(C(F)(F)F)c1 :: 31.2 µM
CCCC1=C(C(=O)OCC)C(c2ccccc2OC)C(C#N)=C(N)O1 (stereo not given) :: > 100 µM
CC(=O)N1CC(=O)NC1=S :: > 100 µM
CCCCCNC(=O)c1c(O)[nH]c(=S)[nH]c1=O :: > 100 µM
CCC1c2[nH]c3ccccc3c2C[C@H]2C(=O)N3CCC[C@H]3C(=O)N12 (stereo not given in full) :: > 100 µM
CCCNC(=O)Cn1c(C)cc2ccccc21 :: > 100 µM
CCC(c1ccc2cc(O)ccc2c1)C(C)(C)C(=O)O (stereo not given) :: > 100 µM
CCOC(=O)c1c(-c2ccccc2)nc2c(OC)nccn12 :: > 100 µM

# query: TGI | item Cc1ccc([N+](=O)[O-])cc1S(=O)(=O)Nc1ccc(C2=NN(C(=O)c3ccccc3)C(c3cccs3)C2)cc1 (stereo not given) | system: MALME-3M melanoma
68.6 µM

Value wanted: TGI (MALME-3M melanoma) of entry COC1OC(COS(=O)(=O)c2ccc(C)cc2)C(O)C(OS(=O)(=O)c2ccc(C)cc2)C1OS(=O)(=O)c1ccc(C)cc1 (stereo not given)
> 100 µM

// map CC1OC(n2c3ccccc3c3c4c(c5c6ccccc6[nH]c5c32)C(=O)N(CCN2CCOCC2)C4=O)CC(O)C1O (stereo not given) to recorded TGI (system: MALME-3M melanoma)
12.8 µM

Can you look up TGI on MALME-3M melanoma for C=CC[C@@H]1/C=C(\C)C[C@H](C)C[C@H](OC)[C@H]2O[C@@](O)(C(=O)C(=O)N3CCCC[C@H]3C(=O)O[C@H](/C(C)=C/C3CC[C@@H](O)[C@H](OC)C3)[C@H](C)[C@@H](O)CC1=O)[C@H](C)C[C@@H]2OC (stereo not given in full) ?
32.1 µM

Please tell me: TGI of CC(C)(O)CO/N=C1\C(c2c(O)[nH]c3ccccc23)=Nc2ccccc21 , system MALME-3M melanoma?
> 60.6 µM
